Target: UniProtKB O75469
Sequence (O75469 107-434): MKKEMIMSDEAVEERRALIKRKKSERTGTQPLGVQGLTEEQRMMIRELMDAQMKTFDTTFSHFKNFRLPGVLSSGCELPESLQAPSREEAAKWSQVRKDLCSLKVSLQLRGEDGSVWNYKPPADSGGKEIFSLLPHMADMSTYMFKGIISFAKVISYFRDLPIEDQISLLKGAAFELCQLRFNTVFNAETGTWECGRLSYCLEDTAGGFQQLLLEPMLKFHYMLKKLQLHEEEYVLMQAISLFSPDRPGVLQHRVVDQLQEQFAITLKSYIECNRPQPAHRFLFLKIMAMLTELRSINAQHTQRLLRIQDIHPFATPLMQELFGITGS
Conditions: human
Rule: Human PXR Relative activation (%) of 30% or more gives Fulfilled; anything lower gives Not fulfilled.

1. CC(=O)N1CCN(c2ccc(OCC3COC(Cn4ccnc4)(c4ccc(Cl)cc4Cl)O3)cc2)CC1 (stereo not drawn) [Ketoconazole, reference compound]    Not fulfilled
2. ClC1=C(Cl)[C@]2(Cl)[C@@H]3[C@@H]4C[C@@H]([C@H]5O[C@@H]45)[C@@H]3[C@@]1(Cl)C2(Cl)Cl [Dieldrin]    Fulfilled
3. COc1ccc2[nH]c([S+]([O-])Cc3ncc(C)c(OC)c3C)nc2c1 (stereo not drawn) [Omeprazole, reference compound]    Fulfilled
4. C[Si]1(C)O[Si](C)(C)O[Si](C)(C)O1 [Hexamethylcyclotrisiloxane (D3), Hexamethylcyclotrisiloxane]    Not fulfilled
5. O=S1OCC2C(CO1)C1(Cl)C(Cl)=C(Cl)C2(Cl)C1(Cl)Cl (stereo not drawn) [Endosulfan (α+β ~ 2:1), Endosulfan]    Fulfilled
6. NC(=O)N1c2ccccc2C=Cc2ccccc21 [Carbamazepine, reference compound]    Not fulfilled
